- ASSAYED TARGET: T1, hu-IL-36β (human IL-36β, N-terminally truncated active form R5-E157) (human)
- T1 construct: Purification tag cleaved off; Biotinylated where captured; also called hu-IL-36b
- T1 chain: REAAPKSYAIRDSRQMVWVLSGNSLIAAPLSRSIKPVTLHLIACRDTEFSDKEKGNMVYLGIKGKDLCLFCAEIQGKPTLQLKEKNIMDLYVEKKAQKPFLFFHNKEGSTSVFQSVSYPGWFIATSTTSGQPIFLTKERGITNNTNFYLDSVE
- MEASUREMENT DESCRIPTION: SPR (Biacore 8K), biotinylated hu-IL-36β captured on CAP chip, Fab injected, 37°C
PROPERTY NAME: pKd
Lab note — pKd values are minus log10 of concentrations in M.

// known answers, use as guide
mAb6_2.8 Fab (Fab, V domains shown, Recombinant Fab with 8xHis tag (Expi293F)) VH: ELQLQESGPGLVKPSETLSLTCTVSGGSITASNYYWGWIRQPPGKGLEWIGSIDYTGSTYYNPSLKSRVTISVDTSKNQFSLKLSSVTAADTAVYYCASGKYYETYLGFDVWGQGTLVTVSS VL: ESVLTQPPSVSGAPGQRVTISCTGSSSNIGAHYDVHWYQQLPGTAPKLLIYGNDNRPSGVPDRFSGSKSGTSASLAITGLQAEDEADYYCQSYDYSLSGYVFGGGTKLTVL: 8.97
mAb6_2.9 Fab (Fab, V domains shown, Recombinant Fab with 8xHis tag (Expi293F)) VH: ELQLQESGPGLVKPSETLSLTCTVSGGSITSSNYYWGWIRQPPGKGLEWIGSIDYTGSTYYNPSLKSRVTISVDTSKNQFSLKLSSVTAADTAVYYCATGKYYETYLGFDVWGQGTLVTVSS VL: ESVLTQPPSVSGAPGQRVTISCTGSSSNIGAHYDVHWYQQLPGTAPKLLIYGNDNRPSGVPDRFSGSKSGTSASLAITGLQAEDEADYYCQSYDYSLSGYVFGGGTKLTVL: 8.86

Requested read-out: pKd. Entry: mAb6_2.5 Fab (Fab, V domains shown, Recombinant Fab with 8xHis tag (Expi293F)) VH: ELQLQESGPGLVKPSETLSLTCTVSGGSITASNYYWGWIRQPPGKGLEWIGSIDYTGSTYYEPSLKSRVTISVDTSKNQFSLKLSSVTAADTAVYYCATGSYYETYLGFDVWGQGTLVTVSS VL: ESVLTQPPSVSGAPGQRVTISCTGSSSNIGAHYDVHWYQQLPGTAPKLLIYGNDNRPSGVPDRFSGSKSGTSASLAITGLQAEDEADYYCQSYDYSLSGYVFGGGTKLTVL
9.18
